target: Mitogen-activated protein kinase 10 (Homo sapiens); assay: Inhibition of JNK3 by TR-FRET assay
As shown below, each of these molecules has a reported IC50 value.
Give just the number in nM; leave the unit off.

Use the examples below as a reference point.
>>> df
                               entry_smiles  measurement_name  recorded_value
0         c1ccc2cc(-n3nccc3-c3ccncc3)ccc2c1              IC50            1230
1  Nc1cc(-c2n[nH]c(=S)n2-c2ccc3ccccc3c2)ccn1              IC50            1030

The record that follows has no IC50 shown yet.
Prompt: Consider the molecule c1ccc2cc(-n3nncc3-c3ccncc3)ccc2c1 and give its recorded IC50.
Completion: 2670

---

molecular target: Mitogen-activated protein kinase 8 (Homo sapiens, UniProt P45983); test: Inhibition of JNK1 by TR-FRET assay
Sequence (P45983 whole entry): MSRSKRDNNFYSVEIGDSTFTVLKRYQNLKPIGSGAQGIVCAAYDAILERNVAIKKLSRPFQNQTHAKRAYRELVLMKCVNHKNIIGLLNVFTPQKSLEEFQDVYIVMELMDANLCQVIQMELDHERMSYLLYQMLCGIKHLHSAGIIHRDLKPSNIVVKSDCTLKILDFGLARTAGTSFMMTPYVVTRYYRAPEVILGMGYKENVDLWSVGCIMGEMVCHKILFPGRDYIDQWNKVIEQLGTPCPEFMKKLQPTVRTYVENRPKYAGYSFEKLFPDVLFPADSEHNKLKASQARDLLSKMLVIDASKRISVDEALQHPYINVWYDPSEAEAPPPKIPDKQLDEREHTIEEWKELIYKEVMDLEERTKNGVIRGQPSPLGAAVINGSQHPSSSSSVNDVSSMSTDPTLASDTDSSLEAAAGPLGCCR
Measurement Name: IC50

Use the examples below as a reference point.
In [3]: df
Out[3]:
                               entry_smiles                         system_under_test  measurement_name  recorded_value
0  S=c1[nH]nc(-c2ccnc(Br)c2)n1-c1ccc2ccccc2c1  Mitogen-activated protein kinase 8 (Homo sapiens, UniProt P45983)              IC50         > 50 µM
1      c1ccc2cc(-c3n[nH]cc3-c3ccncc3)ccc2c1  Mitogen-activated protein kinase 8 (Homo sapiens, UniProt P45983)              IC50         7.15 µM
2       Clc1nnn(-c2ccncc2)c1-c1ccc2ccccc2c1  Mitogen-activated protein kinase 8 (Homo sapiens, UniProt P45983)              IC50         > 50 µM

Prompt: Consider the molecule c1ccc2cc(-n3cnnc3-c3ccncc3)ccc2c1 and give its recorded IC50.
Completion: > 50 µM

Prompt: Consider the molecule S=c1[nH]nc(-c2ccncc2)n1-c1ccc2ccccc2c1 and give its recorded IC50.
Completion: 12.5 µM

Prompt: Consider the molecule Cc1cc(-c2n[nH]c(=S)n2-c2cnc3ccccc3c2)ccn1 and give its recorded IC50.
Completion: > 50 µM

---

biological target: Mitogen-activated protein kinase 10 (Homo sapiens, UniProt P53779); assay: Inhibition of JNK3 by TR-FRET assay
Sequence (P53779 whole entry): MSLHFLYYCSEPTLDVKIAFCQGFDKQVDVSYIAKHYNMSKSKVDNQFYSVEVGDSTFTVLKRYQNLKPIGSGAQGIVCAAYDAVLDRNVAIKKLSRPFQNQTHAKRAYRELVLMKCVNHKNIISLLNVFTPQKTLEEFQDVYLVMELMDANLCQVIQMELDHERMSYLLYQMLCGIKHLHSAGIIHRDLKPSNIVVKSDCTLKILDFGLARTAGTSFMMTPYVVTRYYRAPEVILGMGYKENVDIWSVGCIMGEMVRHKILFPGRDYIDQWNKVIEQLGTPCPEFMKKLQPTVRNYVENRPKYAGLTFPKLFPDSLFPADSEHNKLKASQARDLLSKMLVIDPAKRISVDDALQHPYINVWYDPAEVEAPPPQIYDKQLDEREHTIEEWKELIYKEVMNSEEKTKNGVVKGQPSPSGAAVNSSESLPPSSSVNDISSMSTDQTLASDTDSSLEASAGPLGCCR
pIC50: −log10 of the molar value.
Measurement Name: pIC50

In [3]: df
Out[3]:
                        entry_smiles  recorded_value
0  c1ccc2cc(-c3nnnn3-c3ccncc3)ccc2c1          < 4.30

Prompt: State recorded pIC50 with Mitogen-activated protein kinase 10 (Homo sapiens, UniProt P53779), entry S=c1[nH]nc(-c2ccncc2)n1-c1cnc2ccccc2c1 , no comment.
Completion: < 4.30

Prompt: State recorded pIC50 with Mitogen-activated protein kinase 10 (Homo sapiens, UniProt P53779), entry S=c1[nH]nc(-c2ccnc(Br)c2)n1-c1ccc2ccccc2c1 , no comment.
Completion: < 4.30
